- Study System: T1, cyno CD46 expressed on 293 cells (cynomolgus)
- T1 construct: whole, on cells; The construct on the cells is not described; also called HEK 293 cells expressing cyno CD46
- Method: FACS, 293 cells expressing cyno CD46, pH 6.0
In this section we review reported EC50 values for a set of binders.
Just the number please, in µg/mL, no unit attached.

Task: Which value of EC50 has been reported for Benchmark (BM) BA-133-00-01 (antibody, V domains shown, the killing assays used the ADC form; Conjugation site and payload are not described; also called BM (bench mark)) VH: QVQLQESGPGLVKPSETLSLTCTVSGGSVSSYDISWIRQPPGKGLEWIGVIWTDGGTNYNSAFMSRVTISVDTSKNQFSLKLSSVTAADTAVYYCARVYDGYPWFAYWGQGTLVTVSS VL: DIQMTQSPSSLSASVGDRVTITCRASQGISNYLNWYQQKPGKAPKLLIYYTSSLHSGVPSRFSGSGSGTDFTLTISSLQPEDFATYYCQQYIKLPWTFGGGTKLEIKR in the records?
Result: 0.0336

Others:
Task: Quick one: EC50 for BAP133-2-02-12 (antibody, V domains shown, also called BAP133-02-02-12; CPE hit BAP133-2-02-12) VH: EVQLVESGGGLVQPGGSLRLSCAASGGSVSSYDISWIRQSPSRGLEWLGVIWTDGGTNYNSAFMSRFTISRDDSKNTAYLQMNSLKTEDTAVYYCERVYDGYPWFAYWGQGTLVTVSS VL: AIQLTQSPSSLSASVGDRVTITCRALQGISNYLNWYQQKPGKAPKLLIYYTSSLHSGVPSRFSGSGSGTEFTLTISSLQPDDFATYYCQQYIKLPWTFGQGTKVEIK ?
Result: 0.198

Task: Try this binder next: BA-133-04-01 (antibody, V domains shown, also called CPE hit BA133-04-01) VH: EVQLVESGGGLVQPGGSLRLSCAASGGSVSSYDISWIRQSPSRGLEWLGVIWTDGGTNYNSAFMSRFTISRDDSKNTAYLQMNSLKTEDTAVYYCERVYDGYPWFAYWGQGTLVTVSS VL: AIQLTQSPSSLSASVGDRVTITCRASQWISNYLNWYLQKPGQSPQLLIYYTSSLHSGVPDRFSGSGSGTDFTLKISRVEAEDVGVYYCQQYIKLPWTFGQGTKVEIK
Result: 0.114

Task: Queued: BA-133-04-02 (antibody, V domains shown, also called CPE hit BA133-04-02) VH: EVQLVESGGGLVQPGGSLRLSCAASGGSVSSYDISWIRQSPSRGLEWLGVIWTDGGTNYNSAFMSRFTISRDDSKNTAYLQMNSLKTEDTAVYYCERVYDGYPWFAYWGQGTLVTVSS VL: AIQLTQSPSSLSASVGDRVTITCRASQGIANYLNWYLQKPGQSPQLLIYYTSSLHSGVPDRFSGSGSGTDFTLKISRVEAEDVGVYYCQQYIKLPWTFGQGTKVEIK
Result: 0.132

Task: Thanks! And BA-133-04-04 (antibody, V domains shown, the killing assays used the ADC form; also called CPE hit BA133-04-04) VH: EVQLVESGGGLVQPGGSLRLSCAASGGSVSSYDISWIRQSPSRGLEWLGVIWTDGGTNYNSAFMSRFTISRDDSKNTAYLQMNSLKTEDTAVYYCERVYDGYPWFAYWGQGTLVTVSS VL: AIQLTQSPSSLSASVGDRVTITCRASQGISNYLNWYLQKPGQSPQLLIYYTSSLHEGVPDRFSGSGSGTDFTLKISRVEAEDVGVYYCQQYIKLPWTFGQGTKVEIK ?
Result: 0.0947
